Target: hPPARδ-LBD (Homo sapiens, UniProt Q03181)
Sequence (Q03181 211-439 limits assumed): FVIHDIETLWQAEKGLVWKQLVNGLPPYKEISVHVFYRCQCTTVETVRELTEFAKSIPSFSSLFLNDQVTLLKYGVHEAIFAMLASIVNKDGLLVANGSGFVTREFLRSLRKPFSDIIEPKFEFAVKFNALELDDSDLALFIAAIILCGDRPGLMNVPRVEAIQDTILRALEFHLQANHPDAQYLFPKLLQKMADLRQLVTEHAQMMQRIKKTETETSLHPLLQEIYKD
property-label: Kd (µM)
I only need the number, in µM, no unit after it.

Field Kd (entry COc1ccc(/C=C/c2cc(OC)cc(OCCCC(C)(C)C(=O)O)c2)cc1 ) reads 4.17
